A collection of compounds and their measured ΔTm at 50 µM
test.target: human STING (Homo sapiens, UniProt Q86WV6)
Sequence (Q86WV6 whole entry H232R): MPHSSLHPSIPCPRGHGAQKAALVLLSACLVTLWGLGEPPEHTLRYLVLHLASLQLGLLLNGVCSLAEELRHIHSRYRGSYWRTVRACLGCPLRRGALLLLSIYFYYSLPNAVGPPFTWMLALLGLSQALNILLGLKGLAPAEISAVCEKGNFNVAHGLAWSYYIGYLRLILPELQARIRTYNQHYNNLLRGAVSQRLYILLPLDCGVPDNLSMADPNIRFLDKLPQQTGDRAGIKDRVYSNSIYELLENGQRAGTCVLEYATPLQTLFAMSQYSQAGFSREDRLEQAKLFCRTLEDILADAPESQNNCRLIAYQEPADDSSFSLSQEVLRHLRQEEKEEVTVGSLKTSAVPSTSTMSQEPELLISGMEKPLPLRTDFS
procedure.summary: Fluorescence Thermal Shift assay
Format: binding
condition.context: 50 μM compound; STING 0.1 mg/ml; 20 minutes preincubation; read-out: [hSTING] FTS, ΔTm [° C.] for 50 μM

# example entries with known answers
O=c1c(CN(CCCn2ccnc2)Cc2ccncc2)coc2cc(OCc3ccccc3)ccc12: > 2.5 °C
COc1ccc(-c2cc3occ(CN(CCCn4ccnc4)Cc4ccncc4)c(=O)c3cc2F)cc1: > 2.5 °C
Cc1ccc2c(=O)c(CN(CCCn3ccnn3)Cc3ccncc3)coc2c1C: > 2.5 °C

GET /values?item= `COc1cc(CN(CCCc2cccnc2)Cc2cn(C3CC3)c3cc(F)c(F)cc3c2=O)ccn1` &system= human STING (Homo sapiens, UniProt Q86WV6) returns ΔTm at 50 µM: > 2.5 °C

GET /values?item= `O=c1c(CN(CCCn2cnc3ncccc32)Cc2ccncc2)coc2c1ccc1ccccc12` &system= human STING (Homo sapiens, UniProt Q86WV6) returns ΔTm at 50 µM: > 2.5 °C

---

test.target: UniProt Q86WV6
procedure.summary: Fluorescence Thermal Shift assay
Assay type: binding
condition.context: 50 μM compound; STING 0.1 mg/ml; 20 minutes preincubation; read-out: [hSTING] FTS, ΔTm [° C.] for 50 μM
A collection of molecules and their measured ΔTm at 50 µM

# example entries with known answers
Cc1ccc2c(=O)c(CN(CCCn3ccnc3)Cc3ccnc(F)c3)coc2c1C: < 2.5 °C
O=c1c(CN(CCCn2ccnc2)Cc2ccncc2)coc2cc(-c3cc[nH]n3)ccc12: > 2.5 °C
O=c1c(CN(CCCn2cccn2)Cc2ccncc2)coc2ccccc12: < 2.5 °C

# molecule `COc1cc(CN(CCCn2cnc3ncncc32)Cc2cn(C)c3ccccc3c2=O)ccn1` ; its ΔTm at 50 µM = < 2.5 °C

# molecule `O=c1c(CN(CCCc2cccnc2)Cc2ccncc2)coc2c1ccc1ccccc12` ; its ΔTm at 50 µM = > 2.5 °C

# molecule `Cc1oc2c(ccc3ccccc32)c(=O)c1CN(CCCn1ccnc1)Cc1ccncc1` ; its ΔTm at 50 µM = > 2.5 °C

---

A collection of molecules and their measured ΔTm at 50 µM
test.target: human STING (Homo sapiens)
procedure.summary: Fluorescence Thermal Shift assay
Assay type: binding
condition.context: 50 μM compound; STING 0.1 mg/ml; 20 minutes preincubation; read-out: [hSTING] FTS, ΔTm [° C.] for 50 μM

# example entries with known answers
COc1ccc(-c2ccc3c(=O)c(CN(CCCn4ccnc4)Cc4ccncc4)c(C)oc3c2)cc1: > 2.5 °C
Cc1oc2cc(N3CCNCC3)c(F)cc2c(=O)c1CN(CCCc1cccnc1)Cc1ccncc1: > 2.5 °C
CN1CCN(c2cc3occ(CN(CCCc4cccnc4)Cc4ccncc4)c(=O)c3cc2F)CC1: > 2.5 °C
O=c1c(CN(CCCc2ccccn2)Cc2ccncc2)coc2ccccc12: < 2.5 °C
O=c1c(CN(CCCn2cnc3ccccc32)Cc2ccncc2)coc2c1ccc1ccccc12: > 2.5 °C

# molecule `COc1cc(CN(CCCn2cc(C(N)=O)nn2)Cc2cn(C)c3ccccc3c2=O)ccn1` ; its ΔTm at 50 µM = < 2.5 °C

# molecule `COc1ccc(-c2ccc3c(=O)c(CN(CCCn4ccnc4)Cc4ccncc4)coc3c2)cc1OC` ; its ΔTm at 50 µM = < 2.5 °C

# molecule `COc1ccc2ccc3c(=O)c(CN(CCCc4cccnc4)Cc4ccncc4)coc3c2c1` ; its ΔTm at 50 µM = > 2.5 °C

Where these numbers come from: patent US12162863B2
